These entries and their values trace back to patent US5238838A.

# Test system: strain DSM 6230
# procedure_summary: Growth of strain DSM 6230 on the test substances (OD660)
# Format: cell-based
# conditions_used: 5 g/l of the substance in minimum medium with 1.0 g/l yeast extract; 36 h, 30° C.
# Experimental: 1367 strains were isolated during the screening program. These strains were incubated in 100 ml Erlenmeyer flasks containing 20 ml of the particular enrichment medium in a rotary agitator at 30° C. and 120 rpms. The optical density at 660 nm was taken as an indication for the cell growth. In this test, various substances were examined for their induction action. At the same time, the growth on these compounds was followed. […]
Form field: OD660 (one value per entry).
Note: the reply should be a number with no unit written.

Some compounds with recorded OD660:
CC(O)C(N)=O (stereo not shown) [Lactic acid amide] = 0.8
NCC(N)=O [Glycine amide] = 1.0
NC(=O)c1cccnc1 [Nicotinamide] = 0.7
C[N+](C)(C)C[C@H](O)CC#N [L-carnitine nitrile] = 0.8
C[N+](C)(C)C[C@@H](O)CC(N)=O [D-carnitine amide] = 0.8

GET /values?readout=OD660&system=strain DSM 6230&item= CCCC(N)=O [Butyramide]
0.9

And the next one, C=CC(N)=O [Acrylamide] ?
0.8

Another compound to look at: C=C(C)C(N)=O [Methacrylamide]
0.8

Same question, C[N+](C)(C)CC(O)CC#N (racemic) [DL-carnitine nitrile] this time
0.8

Also C[N+](C)(C)C[C@H](O)CC(N)=O [L-carnitine amide] , if possible.
3.5

Repeat with CC(C)[C@H](N)C(N)=O [L-valine amide]
0.9

Consider next the compound C[N+](C)(C)CC(=O)[O-] [Glycine betaine] in the same way.
2.9

Do the same for CCC(N)=O [Propionamide] please
1.1

Similarly, C[N+](C)(C)CC(=O)CC(=O)[O-] [Dehydrocarnitine] ?
0.8

----------
# Test system: L-carnitine amidase
# conditions_used: additive 1 mM; 45 min. preincubation at 30° C.
Counter-ions that a name gives are not always drawn.
// class assignment uses Enzyme activity (%) with these ranges: class 1 = under 80%, class 2 = from 80% up to 90%, class 3 = 90% and over

Examples from the recorded data:
[Ba+2].[Cl-].[Cl-] = class 3
[Cl][Fe][Cl] = class 2
[N-]=[N+]=[N-].[Na+] = class 2
[Cl][Cu][Cl] = class 1
[Cl-].[Cl-].[Zn+2] = class 1
CCN1C(=O)C=CC1=O [Ethyl maleinimide] = class 3
[Cl-].[Cl-].[Mg+2] = class 3
O=C(O)c1cc(SSc2ccc([N+](=O)[O-])c(C(=O)O)c2)ccc1[N+](=O)[O-] = class 1
N[C@@H]1CON=C1O = class 3
CC=O = class 2

Attention now turns to another entry.
Pick a category. Item: Cc1ccc(S(=O)(=O)N[C@@H](CCCCN)C(=O)CCl)cc1 [hydrochloride]
class 2

----------
# System: L-carnitine amidase
# conditions_used: additive 10 mM; 45 min. preincubation at 30° C.
Where a name gives a salt, the structure may show the parent alone.
Overview of reported Enzyme activity (%) across a group of compounds:
Answer in %, number only, no unit symbol.

[N-]=[N+]=[N-].[Na+] [NaN3] = 82
[Cl][Mn][Cl] [MnCl2] = 76
[Cl][Cu][Cl] [CuCl2] = 54
CC(C)CC(=O)C(=O)O [α-ketoisocaproic acid] = 90
[Ca+2].[Cl-].[Cl-] [CaCl2] = 90

# Enzyme activity (%) lookup, item Cc1ccc(S(=O)(=O)N[C@@H](CCCCN)C(=O)CCl)cc1 [hydrochloride]
73

Similarly, [Cl-].[Cl-].[Co+2] [CoCl2] ?
76

What do we get for c1cnc2c(c1)ccc1cccnc12 [Phenanthroline] ?
82

Then this compound: CCC(CC)(C(=O)O)C(=O)O [Diethyl malonic acid]
68

How about CC=O [Acetaldehyde] ?
81

Okay, and O=S(=O)(F)Cc1ccccc1 [Phenylmethane sulfonylfluoride (PMSF), Phenylmethane sulfonylfluoride] ?
2

Please do the same for [F-].[Na+] [NaF] as well.
78

----------
// reported Enzyme activity (%) for each item listed
# System: L-carnitine amidase
# conditions_used: additive 10 mM; 45 min. preincubation at 30° C.
Lab book: enter the figure in %, no units written.

Example entries and their recorded answers appear below.
CN(C)C(=O)Oc1cccc([N+](C)(C)C)c1 [Neostigmine bromide] = 94
[Cl][Fe][Cl] = 57
Cl.N=C(N)c1ccc(N)cc1 [Para-amino benzamidine hydrochloride] = 99

What does the data say about its Enzyme activity (%)? Entry: [Ba+2].[Cl-].[Cl-]
105

Another: OCCS
101

----------
# Tested on: strain DSM 6230
# procedure_summary: Growth of strain DSM 6230 on the test substances (OD660)
# Assay type: cell-based
# conditions_used: 5 g/l of the substance in minimum medium with 1.0 g/l yeast extract; 36 h, 30° C.
Output met for OD660 not less than 1; output not met otherwise.

# count of solved cases: 3
CC(C)C[C@@H](N)C(N)=O [D-leucine amide] = not met
C[N+](C)(C)CC(O)CC(N)=O (racemic) [DL-carnitine amide] = met
CC(C)C[C@H](N)C(N)=O [L-leucine amide] = met

Reported OD660 reaches at least 1 for CC(C)C(N)=O [Isobutyramide] ?
met

Same for C[N+](C)(C)CCCC(=O)[O-] [butyrobetaine, γ-butyrobetaine]
not met

Please give the result for NC(=O)c1ccccc1 [Benzamide] too.
not met

And what about the compound NC(=O)[C@@H](N)Cc1ccccc1 [L-phenylalanine amide] ?
not met

Ok, now C[N+](C)(C)C[C@@H](O)CC#N [D-carnitine nitrile]
not met

For C[N+](C)(C)CC(O)CC(=O)[O-] (racemic) [DL-carnitine] then?
met

----------
Known Enzyme activity (%) of a selection of compounds
# Tested on: L-carnitine amidase
# conditions_used: additive 1 mM; 45 min. preincubation at 30° C.

Past entries and their recorded results:
Cl.N=C(N)c1ccc(N)cc1 [Para-amino benzamidine hydrochloride] = 88%
[Cl-].[Cl-].[Co+2] = 90%
c1cnc2c(c1)ccc1cccnc12 = 89%
[F-].[Na+] = 88%
[Cl][Ni][Cl] = 80%

Enzyme activity (%) for O=[N+]([O-])[O-].[Ag+] ?
65%

Param item: CC(C)CC(=O)C(=O)O
92%

Can you handle OCCS next?
100%

Query [Cl][Hg][Cl] next
< 1%

Try this compound too: [Cl][Fe]([Cl])[Cl]
87%

----------
# System: L-carnitine amidase;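 also: additives put into the enzyme mixture before substrate, reaction then initiated by substrate addition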
# conditions_used: additive 1 mM; 45 min. preincubation at 30° C.
Items are presented alongside their recorded Enzyme activity (%).
Number only, in %; omit the unit.

Illustrative cases are given below, each with its answer.
[Ca+2].[Cl-].[Cl-] [CaCl2] = 103
CN(C)C(=O)Oc1cccc([N+](C)(C)C)c1 [Neostigmine bromide] = 100

Look up Enzyme activity (%): O=C(O)c1cc[c]([Hg][OH])cc1 [Para-hydroxymercuribenzoate]
51

Now try [Cl][Mn][Cl] [MnCl2] .
89

Then this molecule: CCC(CC)(C(=O)O)C(=O)O [Diethyl malonic acid]
92

# iterate: O=S(=O)(F)Cc1ccccc1 [Phenylmethane sulfonylfluoride (PMSF), Phenylmethane sulfonylfluoride]
23
